Test system: MS2 coat protein
Experimental protocol: apparent KD of MS2 coat protein; designed switch direction (-1 OFF switch, 1 ON switch): -1; higher = weaker reporter binding
Experimental parameters: input ligand: none
Experimental readout: apparent KD of MS2 coat protein (nM)

- GUAGAGUCAGGAUAUACGAGAUCGAUAGAUCGGCGAUCCAAACAUGAGGAUCACCCAUGUAGAAGGGACUCUAC [Mat - Exclusion 2 - Eli Mod - D4] (Eterna round: R97, puzzle: Exclusion 2): 41.6
- GUCAGUAUAUAACAAGCAUACAUGAGGAUCACCCAUGUGCGCGGAAAGCGUUUCCGCGCAUAUCGUUCCUAGCUCGG [Eternabot (Original) Solution 14] (Eterna round: R97, puzzle: Sensor, turn-off variant 1): 505

* * *

Tested on: K4 kissing-loop RNA reporter;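 note: bound reporter read as fluorescence of individual clusters on recovered sequencing chips by microscopy, with normalized cluster intensities fitted with a binding model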
Experimental protocol: apparent KD of K4 kissing-loop reporter; higher = weaker reporter binding
Experimental parameters: Eterna round: R107; input ligand: FMN 200 uM
Experimental readout: apparent KD of K4 kissing-loop reporter (µM)

* GGUAGCAUCGCGGCCGCCACUAAUCGCUAAGGCUCAGGACCCUAAUAGCGAGUGAUGUUCGCCCUUAGGACCGGGCGAUGCUACC | 0.114
* GGUGUUGUUUGUGCUGUUUUCCUCGUUUCUCGAGGACCGGUACGGCCGCCACUCGAGUGAUGUUUGGGUAGCGAUCUUUGUUAGU [Bdazzled - #5 Exc. Tryptophan A] | 0.223
* CAUACCCAGUGAUGUUGGGUCGGUACCGAUACCAGUCGUACAGCCGACCCUUGGCAGCGGUAGCAUUGCCCGGCGUCGGCUUGUG [theeternabot_exclusion_KL_Theo_A_17] | 0.767
* AUUUGUUUAUGUGAUACCAGACUUUGCAGUGAUGUUGCUUUUAUUUUUGAAUUUUAAAUAGUCCCUUGGCAGCACUAUGUAUUUA [JR_SSTheophyB_Sub009] | 0.0655
* AACGCUUGAAUAACAAGCGAAAUAAAUUCGCGAGGACCGGUACGGCCGCCACUCGCUAACUGCGAGUGAUGUUCGAUAAUAAAAU [Mat - Mod of OpenEnded 3 - D15] | 0.103
* UUCCUCAUGGUAGUGAUGUUGCCGCCCGAUACCAGUCGACGUAUUGACCCUUGGCAGCGGAUCAAGUCCGAUUAAUUUUUUGGUC [theeternabot_sameState_KL_Theo_A_5] | 0.216
* UUGGCUGGACGGGAUACCAGCCAAAUCGUGUGCUUAGGAUGUCUAAGAGCCAGUGAUGUUGGCCCUUGGCAGCCCUCCUAGCUUG [Ordigear] | 0.154
* UGACUGGACUGAAGGAGCGCGCGAGACAAAGUCUCGAACUCCUAGUGAUGUUAGGAAAUAACGCAGGUAGGUCGCAGUCUAGUCU [ArgBS 10 #SwitchBubble #StaticStem #DoubleMagnet] | 0.225
* GGAUGGUAGGCGGCCGCCACUAAAACUGAACAAAUAUAAACCAGUGAUGUUGGUAUGAUGAAGUAUAGGACCGGGCCUAGAUAGA [Exclusion - Tryptophan B (Freestyle 1)] | 0.124
* AAGAAUGCAGGAAGGAGCGGCGGACGGAGUGAUGUUCCGGCUAGUGAUGUUAGCAAACACCGCCAGGUAGGUCGCCUGCUGCCCU [Same State Arginine B GF 6] | 0.207
* UUUAAACAUAGUGAUGUUAUGUAACAAUGACGAGGACCGGUACGGCCGCCACUCGAGAGAGAUAAUGAUAAAAUAAAUAAUUUUC [#09 K4 Tryptophan A Same State] | 0.109

* * *

System: MS2 coat protein
Experimental protocol: apparent KD of MS2 coat protein; designed switch direction (-1 OFF switch, 1 ON switch): -1; higher = weaker reporter binding
Experimental parameters: input ligand: FMN 200 uM
Rule: apparent KD of MS2 coat protein of 200 nM or more gives 1; anything lower gives 0.

* UGCGGUGAGGUAAGGAUAUUUGGGCAAUUACGCCCGGAGAAGGUACAUGAGGAUCACCCAUGUGCAGUAAGGCU [Eternabot (L2) Solution 18] (Eterna round: R97, puzzle: Brourd's mod of Exclusion 4) | 0
* ACUGUAGAAGGAUAUGCUUCGACUCACAUGAGGAUCACCCAUGUCUUCGUGCAGUCGUCUGCAGAAGGUCUCCAGU [EX5 C.7] (Eterna round: R97, puzzle: Exclusion 5) | 1
* UAUUAAUUAAUUAAUUAAUACAUGAGGAUCACCCAUGUAAUUUAAGAUCCUUAUACAAGCUUUGAUCUCGUAAUUAA [Stov1/4-A2] (Eterna round: R97, puzzle: Sensor, turn-off variant 1) | 1
* CGCAACACAUGAGGAUCAAACAUGAGGAUCACCCAUGUAAAACAAGCUUUUUGCUCGUCUUAUAAAUAUGUGUUGCG [Electric Eye 1 - Jieux - Sensor, turn-off variant 1] (Eterna round: R97, puzzle: Sensor, turn-off variant 1) | 0
* GCAGACGUAGUGAGGAUAUGCUCUACCUCGGUAGAGCAGAAGGCACAUGAGGAUCACCCAUGUGACUCCUCAUC [Omei Ex4B B18] (Eterna round: R97, puzzle: Brourd's mod of Exclusion 4) | 0
* ACUUACUGAGGAUAUACAUAGAUUUACAUGAGGAUCACCCAUGUUCCUCUUUGUAUAAAUGUAGAAGGCAGAAGAU [Mat - Exclusion 5 - JL Mod - D59] (Eterna round: R97, puzzle: Exclusion 5) | 0
* AGUACUAACACGGUUGUGUUAGUACAAUAAGCUUGUGAAACAUGAGGAUCACCCAUGUCCUCAUAAGCUCGUCUUAU [salish99_TOv2_r3_070] (Eterna round: R96, puzzle: Sensor v3, turn-off variant 2) | 0
* AACGACGGAGGAUAUACACCCUGGGACUCAUUAUCCCUUAGACAUGAGGAUCACCCAUGUAGAAGGCCGAACAC [EX2 B.3] (Eterna round: R97, puzzle: Exclusion 2) | 0

* * *

Tested on: MS2 coat protein
Experimental protocol: apparent KD of MS2 coat protein; designed switch direction (-1 OFF switch, 1 ON switch): -1; higher = weaker reporter binding
Experimental parameters: input ligand: none
Label scheme for apparent KD of MS2 coat protein: lower than 300 nM is not fulfilled, 300 nM and above is fulfilled.

• UAUUAACAAGCGAGAUCCCACAUGAGGAUCACCCAUGUGCUCGUCUUAUAAGGUACUGUGACGAAAGUCACGGUACC [Sensor 3, v1 - 91 v2] (Eterna round: R97, puzzle: Sensor, turn-off variant 1) = not fulfilled
• UAACAUGUCUGAGGAUAUCUGCACGAUUAGUGCAGAGAAGGCAGAACAUGAGGAUCACCCAUGUAGAUCAUUAAUUAAUUAAUU [ENG1/7-B1] (Eterna round: R96, puzzle: Exclusion NG 1) = fulfilled
• AUAAUGUGAGGAUAUCGAGACUACUGCUUCGGCAGUAGUCUCGAGAAGGCACAUGAGGAUCACCCAUGUGAUCA [E4/2-A1] (Eterna round: R97, puzzle: Exclusion 4) = fulfilled
• CUGCUCCGUGUAGGAUAUGCAUACUCCCAUUAUGCAGAAGGACAUGAGGAUCACCCAUGUAUGUUAUUAUCAUGUGUUGCAUGC [Design 11] (Eterna round: R96, puzzle: Exclusion NG 1) = not fulfilled
• UAAUUGAUUAAUAGAUUAUACAUGAGGAUCACCCAUGUAGGUCCUACGUGCCAUUUAAGCAGCUCGUCUUAUUCCCA [Sensor-V1 #68] (Eterna round: R97, puzzle: Sensor, turn-off variant 1) = not fulfilled

* * *

Tested on: MS2 coat protein
Experimental protocol: apparent KD of MS2 coat protein; designed switch direction (-1 OFF switch, 1 ON switch): -1; higher = weaker reporter binding
Experimental parameters: input ligand: microRNA oligo, concentration not stated
I would appreciate it if you labelled entries Satisfied when apparent KD of MS2 coat protein is 20 nM or higher, otherwise Not satisfied.

* UACAUGAGGAUCACCCAUGUUUUAUCAUGUGUAAUAAUAAUGUAGGAUAUGUAUUAUUUUAUUUAACAGAAGGACAAUAAUAAA [JMF's solution 2] (Eterna round: R96, puzzle: Exclusion NG 3) | Satisfied
* ACAUGAGGAUCACCCAUGUCUGGCGGGUCCUCUCCGGCUGUUGAGGAUAUAGUUCGGUAUCCGCGCUAGAAGGUGAGGGCCGGC [Aenatbe mod 20] (Eterna round: R96, puzzle: Exclusion NG 3) | Not satisfied
* UGAUAGAGCCUAGGAUAUUCGGAUCUACUACAAGGAGAAGGAGGUAGUCGGUGACGAACAUGAGGAUCACCCAUGUCGUCCUUC [Eternabot solution 37] (Eterna round: R96, puzzle: Exclusion NG 1) | Satisfied
* UAUAUAUAGUAAGGAUAUGUAUUUAUUUUAUAGACAGAAGGUACUGACAUGAGGAUCACCCAUGUUUUAGUGUGGGCAUGUAGA [JMF's solution 27] (Eterna round: R96, puzzle: Exclusion NG 1) | Satisfied
* ACAUGUUAUGUAGGAUAUUGGACACAUGAGGAUCACCCAUGUACCCGGAGGCUUUACUAUGAGUUCGAGAAGGGUAUGAACAUG [Ex NG2 #68] (Eterna round: R96, puzzle: Exclusion NG 2) | Satisfied
* UCGCUCCGUGUAGGAUAUCGUUGUACUCUGCGGCGAGAAGGACAUGAGGAUCACCCAUGUAUGUUAUUAUCACGCGUGGCGCAA [Design 68] (Eterna round: R96, puzzle: Exclusion NG 1) | Not satisfied
* UGUUGUUACGUAGGAUAUCCACCAACAGGUGGAAGGAUAUGGAAACAGAAGGUUCGCCAACAGGCGGAGAAGGACGGGUUAACA [pwkr exNG2 2xF7 2xFMN.22] (Eterna round: R96, puzzle: Exclusion NG 2) | Not satisfied
* AAAUCACAUGAGGAUCACCCAUGUGAGGAUAUGAUACUAUGUACUUCGGUACAUAGUAUCAGAAGGCAUGUGGA [Ex1-3: 89] (Eterna round: R96, puzzle: Exclusion 1) | Satisfied
* AAUACCCUGUUAGGAUAUAAUACCGAAGGAGUAUUAGAAGGGACAGUAAGGUACAUGAGGAUCACCCAUGUGAGAAUCUGUGCC [Edanxeve] (Eterna round: R96, puzzle: Exclusion NG 1) | Satisfied
